- Tested on: Candida albicans
- EXPERIMENT SUMMARY: Antifungal activity against Candida albicans after 48 hrs by agar dilution method
- Assay type: functional
REPORTED PROPERTY: MIC

These recorded examples may help you get a feel for the data.
CCCCCn1nnc2ccccc21 = 32 µg/mL
OC(Cn1cncn1)(Cn1cncn1)c1ccc(F)cc1F = 32 µg/mL
Clc1ccccc1C(c1ccccc1)(c1ccccc1)n1ccnc1 = 4 µg/mL
c1ccc(C(c2ccccc2)(c2ccccc2)n2nnc3ccccc32)cc1 = 64 µg/mL

Let's switch to this compound now.
For "CCCCCCCCn1cncn1" , write its MIC.
16 µg/mL

====

MIC reference
- Tested on: Trichophyton rubrum
- EXPERIMENT SUMMARY: Antifungal activity against Trichophyton rubrum after 48 hrs by agar dilution method
- Format: functional
Write it as a number; the unit µg/mL goes unstated.

These recorded examples may help you get a feel for the data.
c1ccc(C(c2ccccc2)(c2ccccc2)n2cncn2)cc1 = 64
CCCCCCCCn1cncn1 = 16
c1ccc(C(c2ccccc2)(c2ccccc2)n2nnc3ccccc32)cc1 = 64
CCCCCn1nnc2ccccc21 = 32
COc1ccc(C(c2ccccc2)(c2ccccc2)n2cncn2)cc1 = 32
OC(Cn1cncn1)(Cn1cncn1)c1ccc(F)cc1F = 32
CCCCCCCCn1nnc2ccccc21 = 64
Clc1ccccc1C(c1ccccc1)(c1ccccc1)n1ccnc1 = 0.5
COc1ccc(C(c2ccccc2)(c2ccc(OC)cc2)n2nnc3ccccc32)cc1 = 32
COc1ccc(C(c2ccccc2)(c2ccccc2)n2nnc3ccccc32)cc1 = 64

Let's switch to this compound now.
For "CCCCCn1cncn1" , write its MIC.
64
